# growth listing for each entry below
- Test system: SK-MEL-28 melanoma
- run.description: NCI-60 one-dose screen, 48 h (100 = growth as untreated, 0 = no growth, -100 = all killed)
- assay.setup: 10 µM unless noted
The panel holds about 83,000 compounds, 20% with a hit somewhere; the sample as a whole holds those more often. Calls of active or inactive are those of the source. The calls were made as follows: active = growth percent below 10; inactive = the rest.

Examples with their reported growth follow.
* Cn1c(-c2nonc2NC(=O)c2ccc(F)cc2)nc2ccccc21 | 110% (inactive)
* Cc1sc(N=Nc2ccc(N(C)C)cc2)[n+]([O-])c1C | 102% (inactive)
* O=S(=O)(NCCCNc1nccc(-c2c(-c3ccc(F)c(O)c3)nc3sccn23)n1)c1ccc(Cl)cc1 | 23.3% (inactive)

Next, consider the following compound.
Param readout = growth; param system = SK-MEL-28 melanoma; param query = COc1cccc(-c2nc3sccn3c2-c2ccnc(NCCCNS(=O)(=O)c3ccc(F)cc3)n2)c1 ; response: value
38.1% (inactive)
